Every entry's value here was drawn from patent US5703109A.

# testSystem: desmolase
# experimentDescription: Inhibition of desmolase (cholesterol side chain cleavage, SCC, activity)
# conditionSet: mitochondrial fraction from human placenta or bovine adrenals, 37° C., 30 min; read-out: DESMOLASE IC-50
pIC50: −log10 of the molar value.
Assign class by pIC50: not lower than 4 means Met; lower than 4 means Not met.

Here are 3 compounds together with their reported answers.
• N#Cc1ccc(C(CC(O)c2ccc(F)cc2)n2cncn2)cc1 (stereo not drawn) [Compound 6] = Not met
• N#Cc1ccc(C(C(O)CCc2ccc(F)cc2)n2cncn2)cc1 (single isomer, unassigned) [Compound 5] = Not met
• N#Cc1ccc(C(C(O)CCc2ccc(F)cc2)n2ccnc2)cc1 (single isomer, unassigned) [Compound 2] = Met

Determine whether this compound has pIC50 no lower than 4: N#Cc1ccc(C(C(O)Cc2ccc(F)cc2)n2cncn2)cc1 (single isomer, unassigned) [Compound 4]
Not met

Another: N#Cc1ccc(C(=CCCc2ccc(F)cc2)n2cncn2)cc1 (single isomer, unassigned; isomer b) [Compound 3]
Not met

Please answer likewise for N#Cc1ccc(C(O)(CCc2ccc(F)cc2)c2cncs2)cc1 (stereo not drawn) [Compound 9]
Not met

Moving on to N#Cc1ccc(C(C(=O)CCc2ccc(F)cc2)n2cncn2)cc1 (stereo not drawn) [Compound 7]
Not met

And what about the compound N#Cc1ccc(C(CCCc2ccc(F)cc2)n2ccnc2)cc1 (stereo not drawn) [Compound 1] ?
Met

Another compound to check: N#Cc1ccc(C(=CCc2ccc(F)cc2)n2cncn2)cc1 (single isomer, unassigned; isomer b) [Compound 8]
Not met
